- experimental-system: Ubiquitin-activating enzyme e1, putative (Leishmania donovani (strain BPK282A1)) (UniProt E9BSI1)
- Sequence (E9BSI1 as listed by the source): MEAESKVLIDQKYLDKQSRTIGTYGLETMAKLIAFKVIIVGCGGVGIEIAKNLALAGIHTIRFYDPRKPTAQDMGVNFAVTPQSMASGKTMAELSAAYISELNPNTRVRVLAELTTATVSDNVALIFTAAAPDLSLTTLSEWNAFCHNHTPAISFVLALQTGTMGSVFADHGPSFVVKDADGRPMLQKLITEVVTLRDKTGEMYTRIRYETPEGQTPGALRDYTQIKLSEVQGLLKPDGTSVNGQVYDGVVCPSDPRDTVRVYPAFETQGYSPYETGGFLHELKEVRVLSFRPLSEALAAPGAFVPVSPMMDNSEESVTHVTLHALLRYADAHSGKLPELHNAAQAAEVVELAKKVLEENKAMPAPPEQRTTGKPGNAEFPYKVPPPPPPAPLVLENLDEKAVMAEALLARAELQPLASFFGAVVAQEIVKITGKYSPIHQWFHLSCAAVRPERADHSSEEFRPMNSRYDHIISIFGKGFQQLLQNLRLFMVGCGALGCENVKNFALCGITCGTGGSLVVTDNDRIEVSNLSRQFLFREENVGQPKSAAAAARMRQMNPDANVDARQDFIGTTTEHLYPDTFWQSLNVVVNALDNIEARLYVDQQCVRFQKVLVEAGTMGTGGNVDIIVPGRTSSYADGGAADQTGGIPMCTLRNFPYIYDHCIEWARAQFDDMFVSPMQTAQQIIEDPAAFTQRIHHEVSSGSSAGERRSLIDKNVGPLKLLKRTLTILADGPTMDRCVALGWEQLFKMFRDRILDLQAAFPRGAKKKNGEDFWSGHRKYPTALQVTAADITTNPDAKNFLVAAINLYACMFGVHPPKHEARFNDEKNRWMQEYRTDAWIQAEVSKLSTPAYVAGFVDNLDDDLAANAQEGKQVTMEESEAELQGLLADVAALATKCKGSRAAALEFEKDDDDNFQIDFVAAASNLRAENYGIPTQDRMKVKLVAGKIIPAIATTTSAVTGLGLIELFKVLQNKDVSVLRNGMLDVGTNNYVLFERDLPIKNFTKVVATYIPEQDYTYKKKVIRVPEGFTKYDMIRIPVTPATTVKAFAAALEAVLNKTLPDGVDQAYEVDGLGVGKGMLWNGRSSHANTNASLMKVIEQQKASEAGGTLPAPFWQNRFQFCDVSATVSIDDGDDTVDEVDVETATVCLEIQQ
- test: Leishmania donovani Ubiquitin Activating Enzyme (LdE1)
- Format: functional
- Design: scale not given: direction of the effect not stated beside the values
- run-conditions: 30 µM
Entries with a potency or affinity are not part of this list.
recorded-metric: Percent Effect (%)
Please state the figure in %; there is no need to write the unit.

Answered examples (3):
compound: NC(=O)C1CN(C(=O)Nc2ccccc2SC(F)(F)F)CCO1 (configuration not stated)
units-symbol: %
reported: 10.8
//
compound: Cn1c(Cn2ccnc2)nnc1C1CCCN(C2CCCCC2)C1 (configuration not stated)
units-symbol: %
reported: 8.11
//
compound: COCCCC1(CO)CCCN(CCc2ccccc2)C1 (configuration not stated)
units-symbol: %
reported: -2.74

(Q) Which measured Percent Effect value corresponds to COc1ccc(NC(C)C(=O)N2CCN(Cc3ccccc3)CC2)cn1 (configuration not stated) ?
(A) -2.74
